Cited source: PubChem BioAssay AID1229

Kindly supply the reported activation factor values for the records listed here.
# assay_method_text: compounds boosting diaphorase resazurin reduction – biochemical, uHTS, resorufin fluorescence, counter-screen for diaphorase-coupled primary assays, primary screen (AID 1229)
# setup_conditions: Diaphorase/resazurin coupled assay, 16 min, at 20 µM, active compounds read high, 1 = vehicle wells, 0 = NADH-free wells
The campaign covered roughly 190,000 compounds. About 10 (0.005%) were called active. Shown is part of a subset that was picked to be rich in actives.
Respond numerically, and do not add a unit to the figure.

Return activation factor for the following molecule: CCOC(=O)C(NC(=O)CC(C)C)(Nc1sc2c(c1C(N)=O)CCCC2)C(F)(F)F (configuration not stated)
0.9

Return activation factor for the following molecule: [O-][n+]1onc2c1CCc1[nH]c(-c3ccccc3)nc1-2
0.9

Return activation factor for the following molecule: O=C(NC(=S)Nc1ccc(S(=O)(=O)Nc2ncccn2)cc1)c1cccc(Br)c1
0.9

Return activation factor for the following molecule: Cc1cc(NC(=O)CSc2nc3ccccc3n2CC(C)C)no1
0.8

Return activation factor for the following molecule: CC1CCCCC1NC(=O)COC(=O)Cc1ccc(Br)cc1 (configuration not stated)
0.9

Return activation factor for the following molecule: NC(=O)C[C@@H]1NC(=O)CNC(=O)c2cc([N+](=O)[O-])cc(I)c2NCCC(C(N)=O)NC1=O (some centres not stated)
1.1

Return activation factor for the following molecule: Cc1cc(C)n2nc(SCC(N)=O)nc2n1
1

Return activation factor for the following molecule: COc1ccc(OC)c(S(=O)(=O)NCCC(C)C)c1
1.1

Return activation factor for the following molecule: CC(=O)N(CN1C(=O)C2C3C=CC(C3)C2C1=O)c1cccc(Cl)c1 (configuration not stated)
1.1

Return activation factor for the following molecule: Cc1cc(Cl)ccc1NC(=S)NCCCN1CCCC1=O
1

Return activation factor for the following molecule: CCOc1ccc(C(C)=O)cc1COC(=O)c1cnc(Cl)c(Cl)c1
0.8

Return activation factor for the following molecule: O=C(/C(=C/c1cccc(Cl)c1)c1nc2ccccc2[nH]1)c1ccccc1
0.9

Return activation factor for the following molecule: COc1cccc(CNC(=O)c2n[nH]c3ccccc23)c1
1

Return activation factor for the following molecule: CC(=O)Nc1ccc(-c2csc(NC=C3C(=O)OC(C)(C)OC3=O)n2)cc1
0.9

Return activation factor for the following molecule: Cc1cccc2cc3c(N)c(C(=O)N4CCCc5ccccc54)sc3nc12
0.8

Return activation factor for the following molecule: O=C(CCc1n[nH]c(=O)[nH]c1=O)N/N=C/c1ccc(Br)o1
1

Return activation factor for the following molecule: COC(=O)N/N=C/c1ccc(-c2ccc(Cl)c(Cl)c2)o1
0.9

Return activation factor for the following molecule: COc1ccc(CNC(=O)CN2CCC(n3nnc4cc(F)ccc43)CC2)cc1
0.8

Return activation factor for the following molecule: CCn1c(SCC(=O)Nc2ccc(C)cc2)nc2nc3c(cc2c1=O)CCCC3
0.9

Return activation factor for the following molecule: CC(C)(C)OC(=O)N/N=C/c1cn(-c2ccccc2)nc1-c1cccnc1
1

Return activation factor for the following molecule: COc1ccc(Br)cc1/C=N/Nc1ccc(Cl)c(C(=O)O)c1
0.9

Return activation factor for the following molecule: COc1ccc([N+](=O)[O-])cc1NC(=O)c1ccc(N(Cc2ccccc2C)S(C)(=O)=O)cc1
0.9
